Below, each entry is listed with its recorded polymerase ribozyme fitness (log ratio).
B1: TPR t1 (parent)
chain: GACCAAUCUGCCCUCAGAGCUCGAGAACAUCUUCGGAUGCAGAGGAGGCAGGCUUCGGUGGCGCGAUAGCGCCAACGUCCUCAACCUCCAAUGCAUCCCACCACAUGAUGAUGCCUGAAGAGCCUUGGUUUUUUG

# Variants of: B1
# measurement description: polymerase ribozyme fitness, log enrichment relative to wild type (log ratio); higher = more active; in vitro selection for triplet polymerase activity
Hey, just send me the number, nothing else.

Here's what some known entries look like.
variant_notation="A41C G60C C101G U126G U132C" measure="polymerase ribozyme fitness (log ratio)" value=-4.76
variant_notation="A5G A27G G45C C97U G120A" measure="polymerase ribozyme fitness (log ratio)" value=-2.95

Ask: So what's the measured polymerase ribozyme fitness (log ratio) for this one? G48A C123G
Reply: 0.439

Ask: So what's the measured polymerase ribozyme fitness (log ratio) for this one? C15U G36A
Reply: -1.76

Ask: So what's the measured polymerase ribozyme fitness (log ratio) for this one? C11G A74U A108G
Reply: -2.79
